For each entry below, report its Infection rate (%) value.
System: grape powdery mildew fungus (Uncinula necator)
Procedure Summary: Test Example 14: grape powdery mildew, spray then inoculation
Format: in vivo
Settings: 1 ppm; grape plant, 3 weeks at 24° C.
Answers are plain numbers, in %.

[[record]]
structure_string = "CNC(=O)C(=NOC)c1ccccc1COc1cccc(Cl)c1"
obs_value = 20


Consider the following items and state reported Infection rate (%) for each.
1. CNC(=O)C(=NOC)c1ccccc1COc1ccc(Cl)cc1Cl
2. CNC(=O)C(=NOC)c1ccccc1COc1cc(C)ccc1C
3. CON=C(C(=O)OC)c1ccccc1COc1ccccc1C

1: 25; 2: 25; 3: 20
